- conditions-used: in water, 278.15 K
outcome-measure: solubility (mole fraction)

# chemical-smiles, outcome-measure, measured
rows = [
    ("Cc1[nH]nc2cc([N+](=O)[O-])ccc12", "solubility (mole fraction)", "2.1e-05"),
]

====

- conditions-used: in water, 313.15 K
outcome-measure: solubility (mole fraction)

# chemical-smiles, outcome-measure, measured
rows = [
    ("Cc1[nH]nc2cc([N+](=O)[O-])ccc12", "solubility (mole fraction)", 0.000123),
]

====

- conditions-used: in ethyl acetate, 278.15 K
outcome-measure: solubility (mole fraction)

# chemical-smiles, measured
measured = [
    ("Cc1[nH]nc2cc([N+](=O)[O-])ccc12", 0.016),
]

====

- conditions-used: in water, 328.15 K

# chemical-smiles, solubility (mole fraction)
records = [
    ("Cc1[nH]nc2cc([N+](=O)[O-])ccc12", 0.000218),
]

====

- conditions-used: in ethyl acetate, 323.15 K

# chemical-smiles, solubility (mole fraction)
measured = [
    ("Cc1[nH]nc2cc([N+](=O)[O-])ccc12", 0.043),
]

====

- conditions-used: in water, 288.15 K
outcome-measure: solubility (mole fraction)

# chemical-smiles, measured
rows = [
    ("Cc1[nH]nc2cc([N+](=O)[O-])ccc12", "3.6e-05"),
]

====

- conditions-used: in DMF, 298.15 K

# chemical-smiles, solubility (mole fraction)
records = [
    ("Cc1[nH]nc2cc([N+](=O)[O-])ccc12", 0.215),
]

====

- conditions-used: in ethyl acetate, 318.15 K
outcome-measure: solubility (mole fraction)

# chemical-smiles, outcome-measure, measured
records = [
    ("Cc1[nH]nc2cc([N+](=O)[O-])ccc12", "solubility (mole fraction)", 0.0394),
]

====

- conditions-used: in DMF, 313.15 K

# chemical-smiles, solubility (mole fraction)
records = [
    ("Cc1[nH]nc2cc([N+](=O)[O-])ccc12", 0.283),
]

====

- conditions-used: in ethanol, 278.15 K
outcome-measure: solubility (mole fraction)

# chemical-smiles, measured
data = [
    ("Cc1[nH]nc2cc([N+](=O)[O-])ccc12", 0.0042),
]

====

- conditions-used: in acetone, 328.15 K

# chemical-smiles, solubility (mole fraction)
records = [
    ("Cc1[nH]nc2cc([N+](=O)[O-])ccc12", 0.0829),
]

====

- conditions-used: in acetonitrile, 288.15 K

# chemical-smiles, solubility (mole fraction)
data = [
    ("Cc1[nH]nc2cc([N+](=O)[O-])ccc12", 0.0123),
]

====

- conditions-used: in DMF, 318.15 K

# chemical-smiles, solubility (mole fraction)
measured = [
    ("Cc1[nH]nc2cc([N+](=O)[O-])ccc12", 0.309),
]

====

- conditions-used: in DMF, 328.15 K
outcome-measure: solubility (mole fraction)

# chemical-smiles, measured
measured = [
    ("Cc1[nH]nc2cc([N+](=O)[O-])ccc12", 0.371),
]

====

- conditions-used: in ethanol, 303.15 K
outcome-measure: solubility (mole fraction)

# chemical-smiles, outcome-measure, measured
rows = [
    ("Cc1[nH]nc2cc([N+](=O)[O-])ccc12", "solubility (mole fraction)", 0.01),
]

====

- conditions-used: in acetone, 303.15 K

# chemical-smiles, solubility (mole fraction)
rows = [
    ("Cc1[nH]nc2cc([N+](=O)[O-])ccc12", 0.0481),
]

====

- conditions-used: in DMF, 283.15 K
outcome-measure: solubility (mole fraction)

# chemical-smiles, outcome-measure, measured
data = [
    ("Cc1[nH]nc2cc([N+](=O)[O-])ccc12", "solubility (mole fraction)", 0.161),
]

====

- conditions-used: in acetonitrile, 278.15 K

# chemical-smiles, solubility (mole fraction)
rows = [
    ("Cc1[nH]nc2cc([N+](=O)[O-])ccc12", 0.0093),
]

====

- conditions-used: in acetonitrile, 323.15 K
outcome-measure: solubility (mole fraction)

# chemical-smiles, measured
rows = [
    ("Cc1[nH]nc2cc([N+](=O)[O-])ccc12", 0.0239),
]

====

- conditions-used: in acetonitrile, 283.15 K

# chemical-smiles, solubility (mole fraction)
data = [
    ("Cc1[nH]nc2cc([N+](=O)[O-])ccc12", 0.0109),
]

====

- conditions-used: in n-propanol, 283.15 K
outcome-measure: solubility (mole fraction)

# chemical-smiles, measured
measured = [
    ("Cc1[nH]nc2cc([N+](=O)[O-])ccc12", 0.0061),
]

====

- conditions-used: in water, 308.15 K
outcome-measure: solubility (mole fraction)

# chemical-smiles, measured
data = [
    ("Cc1[nH]nc2cc([N+](=O)[O-])ccc12", "9.91e-05"),
]

====

- conditions-used: in acetone, 313.15 K

# chemical-smiles, solubility (mole fraction)
records = [
    ("Cc1[nH]nc2cc([N+](=O)[O-])ccc12", 0.0595),
]

====

- conditions-used: in acetone, 293.15 K
outcome-measure: solubility (mole fraction)

# chemical-smiles, outcome-measure, measured
data = [
    ("Cc1[nH]nc2cc([N+](=O)[O-])ccc12", "solubility (mole fraction)", 0.0382),
]

====

- conditions-used: in ethanol, 318.15 K
outcome-measure: solubility (mole fraction)

# chemical-smiles, outcome-measure, measured
measured = [
    ("Cc1[nH]nc2cc([N+](=O)[O-])ccc12", "solubility (mole fraction)", 0.0164),
]

====

- conditions-used: in acetone, 318.15 K
outcome-measure: solubility (mole fraction)

# chemical-smiles, outcome-measure, measured
data = [
    ("Cc1[nH]nc2cc([N+](=O)[O-])ccc12", "solubility (mole fraction)", 0.0661),
]

====

- conditions-used: in n-propanol, 298.15 K

# chemical-smiles, solubility (mole fraction)
data = [
    ("Cc1[nH]nc2cc([N+](=O)[O-])ccc12", 0.0096),
]

====

- conditions-used: in acetonitrile, 318.15 K

# chemical-smiles, solubility (mole fraction)
data = [
    ("Cc1[nH]nc2cc([N+](=O)[O-])ccc12", 0.0222),
]

====

- conditions-used: in ethanol, 288.15 K

# chemical-smiles, solubility (mole fraction)
rows = [
    ("Cc1[nH]nc2cc([N+](=O)[O-])ccc12", 0.0059),
]

Ref: BigSolDB 2.1
